Tested on: K-562 leukemia growth, % test/control
experiment-summary: Anticancer human tumor K-562 cell line growth inhibition;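 further: spheroids exposed to compounds for 7 days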
particulars: second compound 0.316 µM; first compound 0.00316 µM; hits give low values; spheroids with HUVEC and MSC
So basically, if viability, T/C comes in under 60% it's T, and if it's 60% or more it's F.

Study these solved cases before continuing.
CC(C)CC(NC(=O)C(Cc1ccccc1)NC(=O)c1cnccn1)B(O)O (configuration not stated) + NC1CCC(NC2CC2c2ccccc2)CC1; T
CC[C@@]1(O)C(=O)OCc2c1cc1n(c2=O)Cc2cc3c(CN(C)C)c(O)ccc3nc2-1 + NC1CCC(NC2CC2c2ccccc2)CC1; T
CC1COCCN1c1cc(-c2ccnn2C)c2ccnc(-c3ccn[nH]3)c2n1 (configuration not stated) + NC1CCC(NC2CC2c2ccccc2)CC1; F
COc1cc(Nc2ncc3c(n2)-c2ccc(Cl)cc2C(c2c(F)cccc2OC)=NC3)ccc1C(=O)O + NC1CCC(NC2CC2c2ccccc2)CC1; T
COc1cc(Nc2ncc3c(n2)-c2ccc(Cl)cc2C(c2c(F)cccc2OC)=NC3)ccc1C(=O)O + NC1CC1c1ccc(-c2cccc(O)c2)cc1; T
Cn1ncnc1C1c2n[nH]c(=O)c3cc(F)cc(c23)NC1c1ccc(F)cc1 (configuration not stated) + NC1CCC(NC2CC2c2ccccc2)CC1; F

Now look at this entry.
I'd appreciate it if you could check whether O=C(C=Cn1cnc(-c2cc(C(F)(F)F)cc(C(F)(F)F)c2)n1)NNc1cnccn1 + NC1CCC(NC2CC2c2ccccc2)CC1 has viability, T/C smaller than 60%.
F
